These measurements were taken from ChEMBL document CHEMBL4316588.

Biological target: DNA gyrase (Staphylococcus aureus, UniProt P0A0K8+P20831)
Sequence (P0A0K8 whole entry): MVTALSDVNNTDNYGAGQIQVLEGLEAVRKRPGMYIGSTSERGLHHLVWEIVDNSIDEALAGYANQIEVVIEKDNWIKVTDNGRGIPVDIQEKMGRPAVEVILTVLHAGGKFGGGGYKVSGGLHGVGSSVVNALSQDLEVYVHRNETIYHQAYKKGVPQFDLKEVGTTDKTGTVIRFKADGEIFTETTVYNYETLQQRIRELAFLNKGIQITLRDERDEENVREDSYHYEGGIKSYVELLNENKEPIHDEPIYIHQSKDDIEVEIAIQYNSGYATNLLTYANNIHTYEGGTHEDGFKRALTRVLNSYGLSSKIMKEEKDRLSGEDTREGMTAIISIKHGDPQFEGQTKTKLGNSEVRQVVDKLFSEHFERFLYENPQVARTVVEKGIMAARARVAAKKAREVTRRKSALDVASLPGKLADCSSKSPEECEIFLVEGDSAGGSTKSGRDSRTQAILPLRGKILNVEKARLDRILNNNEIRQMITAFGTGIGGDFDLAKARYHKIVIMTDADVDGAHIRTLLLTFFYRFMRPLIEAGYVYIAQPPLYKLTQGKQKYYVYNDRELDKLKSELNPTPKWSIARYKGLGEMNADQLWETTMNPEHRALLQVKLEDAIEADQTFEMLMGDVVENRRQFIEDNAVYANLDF
Sequence (P20831 whole entry): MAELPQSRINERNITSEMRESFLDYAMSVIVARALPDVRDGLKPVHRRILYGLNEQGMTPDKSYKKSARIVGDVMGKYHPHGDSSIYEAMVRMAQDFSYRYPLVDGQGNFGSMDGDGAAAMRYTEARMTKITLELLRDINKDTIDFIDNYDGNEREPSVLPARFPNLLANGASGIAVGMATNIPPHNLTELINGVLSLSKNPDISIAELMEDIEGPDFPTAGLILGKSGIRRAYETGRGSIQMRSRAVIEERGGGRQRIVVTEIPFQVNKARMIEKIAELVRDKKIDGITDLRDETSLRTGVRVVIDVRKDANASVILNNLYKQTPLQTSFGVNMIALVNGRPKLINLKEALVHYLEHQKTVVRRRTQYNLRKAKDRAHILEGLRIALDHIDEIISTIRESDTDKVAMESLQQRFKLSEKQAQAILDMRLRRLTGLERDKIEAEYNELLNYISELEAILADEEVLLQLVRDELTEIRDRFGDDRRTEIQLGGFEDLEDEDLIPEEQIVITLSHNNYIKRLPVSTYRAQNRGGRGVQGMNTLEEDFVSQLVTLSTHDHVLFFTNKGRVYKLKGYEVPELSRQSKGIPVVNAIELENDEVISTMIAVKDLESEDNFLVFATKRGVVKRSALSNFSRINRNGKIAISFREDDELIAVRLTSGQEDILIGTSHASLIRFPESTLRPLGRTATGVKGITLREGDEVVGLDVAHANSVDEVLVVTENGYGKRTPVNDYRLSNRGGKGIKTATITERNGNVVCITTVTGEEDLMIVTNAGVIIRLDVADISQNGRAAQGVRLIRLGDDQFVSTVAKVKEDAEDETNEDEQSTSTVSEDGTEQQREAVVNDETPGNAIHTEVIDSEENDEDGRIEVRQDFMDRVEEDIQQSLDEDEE
MEASUREMENT LABEL: pIC50
Quick note: pIC50 values are minus log10 of concentrations in mol/L.

Hi! What's the reported pIC50 for C[C@@H]1CN2c3c(cc4c(N5CCOC5=O)noc4c3F)CC3(C(=O)NC(=O)NC3=O)[C@H]2[C@H](C)O1 on DNA gyrase (Staphylococcus aureus, UniProt P0A0K8+P20831)? 4.61

Hi! What's the reported pIC50 for C[C@@H]1CN2c3c(cc4c(N5C[C@H](C)SC5=O)noc4c3F)CC3(C(=O)NC(=O)NC3=O)[C@H]2[C@H](C)O1 on DNA gyrase (Staphylococcus aureus, UniProt P0A0K8+P20831)? 4.90

Hi! What's the reported pIC50 for C[C@@H]1CN2c3c(cc4c(N5CC6(CCC6)OC5=O)noc4c3F)CC3(C(=O)NC(=O)NC3=O)[C@H]2[C@H](C)O1 on DNA gyrase (Staphylococcus aureus, UniProt P0A0K8+P20831)? 4.81

Hi! What's the reported pIC50 for C[C@@H]1CN2c3c(cc4c(N5C(=O)SC[C@@H]5C)noc4c3F)CC3(C(=O)NC(=O)NC3=O)[C@H]2[C@H](C)O1 on DNA gyrase (Staphylococcus aureus, UniProt P0A0K8+P20831)? 4.81

Hi! What's the reported pIC50 for CC[C@H]1CN(c2noc3c(F)c4c(cc23)CC2(C(=O)NC(=O)NC2=O)[C@H]2[C@H](C)O[C@H](C)CN42)C(=O)S1 on DNA gyrase (Staphylococcus aureus, UniProt P0A0K8+P20831)? 5.04

Hi! What's the reported pIC50 for C[C@@H]1CN2c3c(cc4c(N5C[C@@H](C)SC5=O)noc4c3F)CC3(C(=O)NC(=O)NC3=O)[C@H]2[C@H](C)O1 on DNA gyrase (Staphylococcus aureus, UniProt P0A0K8+P20831)? 4.82

Hi! What's the reported pIC50 for COC[C@H]1CN(c2noc3c(F)c4c(cc23)CC2(C(=O)NC(=O)NC2=O)[C@H]2[C@H](C)O[C@H](C)CN42)C(=O)S1 on DNA gyrase (Staphylococcus aureus, UniProt P0A0K8+P20831)? 5.03

Hi! What's the reported pIC50 for C[C@@H]1CN2c3c(cc4c(N5CC6(CC6)OC5=O)noc4c3F)CC3(C(=O)NC(=O)NC3=O)[C@H]2[C@H](C)O1 on DNA gyrase (Staphylococcus aureus, UniProt P0A0K8+P20831)? 5.11
